testedTarget: dopamine D2 (dopamine autoreceptor) (Rattus norvegicus, UniProt P61169)
Construct: homogenized rat striatal brain tissue; from tissue; host or cells: rat striatal brain tissue, homogenized
Sequence (P61169 whole entry): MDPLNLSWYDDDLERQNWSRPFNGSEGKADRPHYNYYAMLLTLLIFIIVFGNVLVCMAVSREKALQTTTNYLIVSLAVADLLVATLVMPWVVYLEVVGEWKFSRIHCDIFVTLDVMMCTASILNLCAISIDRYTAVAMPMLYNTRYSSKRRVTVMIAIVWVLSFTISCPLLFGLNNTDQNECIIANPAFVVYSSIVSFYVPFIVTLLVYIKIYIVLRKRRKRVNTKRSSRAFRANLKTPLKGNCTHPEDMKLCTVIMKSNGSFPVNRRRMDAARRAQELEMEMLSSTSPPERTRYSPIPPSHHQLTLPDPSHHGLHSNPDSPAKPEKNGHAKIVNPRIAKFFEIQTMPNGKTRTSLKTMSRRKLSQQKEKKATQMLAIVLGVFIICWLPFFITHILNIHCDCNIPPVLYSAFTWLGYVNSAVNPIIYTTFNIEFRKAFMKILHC
procedureDetails: Affinity for the dopamine autoreceptor: 3H-quinpirole (Quin.) binding, homogenized rat striatal brain tissue
measuredQuantity: IC50 (nM)

I = O=c1[nH]c2cccc(OCCNCc3ccc(Cl)cc3)c2[nH]c1=O [Example 2]
II = O=c1[nH]c2cccc(OCCNCc3ccccc3)c2[nH]c1=O [Example 1]
Query: Just curious, which one has the larger IC50 reading, I or II ? Identify your selection by its label.
Result: I

----------
testedTarget: dopamine D-2 receptor (Rattus norvegicus, UniProt P61169)
Construct: homogenized limbic brain tissue; from tissue; host or cells: limbic brain tissue, homogenized
Sequence (P61169 whole entry): as above
procedureDetails: High affinity for the dopamine D-2 receptor: 3H-spiroperidol (Spiper.) binding, homogenized limbic brain tissue
testParameters: read-out: IC50 (nM) D2 Spiper
measuredQuantity: IC50 (nM)
The reply should contain only the number, in nM.

Query: May I ask what IC50 has been recorded for O=c1[nH]c2cccc(OCCNCc3ccccc3)c2[nH]c1=O ?
Result: 2190
